Assay overview: Rat oral pharmacokinetics (plasma)
Type: in vivo
Test context: rat, oral, 20-30 μmol/kg, plasma, mean of n = 3

>  <Smi>
CS(=O)(=O)Nc1cccc(CN2CCC[C@H](Nc3ccc4[nH]ncc4c3)C2)c1

>  <Vz_F>
BLQ

$$$$
>  <Smi>
OCCOc1cccc(CN2CCC[C@@H](Nc3ccc4[nH]ncc4c3)C2)c1

>  <Vz_F>
19.0 L/kg

$$$$
>  <Smi>
CSc1ccc(CN2CC[C@@H](Nc3cccc4cnccc34)C2)cc1

>  <Vz_F>
BLQ

$$$$
>  <Smi>
CCc1ccc(CN2CCC[C@@H](Nc3ccc4[nH]ncc4c3)C2)cc1

>  <Vz_F>
BLQ

$$$$
